Where do the numbers come from? From PubChem BioAssay AID1159580.

assay: chemical genetic growth profiling, strain panel (AID 1159580);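 also: tested at 20 µM; growth read once vehicle control cultures reached saturation at 30 °C; 1 = growth at the plate median or of vehicle wells; lower values mean less growth of the strain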; settings: S. cerevisiae deletion strains, growth OD, locus YDL005C, strain med2, active compounds read low
Screen size: about 5,500 compounds; about 2,000 (36%) were called active. Inconclusive results (about 18%) are left out. The list shows a part of the results.

| compound | normalized growth |
| --- | --- |
| COC1=CC(=O)C=C(OC)C1=O | 1.02 |
| NCCCC(O)(P(=O)(O)O)P(=O)(O)O | 0.99 |
| C[C@@H]1CC[C@@]23CCC4(C)[C@@](C=CC5[C@@]6(C)CCC(=O)C(C)(C)C6CC[C@]54C)(OC2=O)C3[C@H]1C (stereo partly specified) | 1 |
| O=C1CC2(CCCC2)CC(=O)N1CCCCN1CCN(c2ncccn2)CC1 | 0.993 |
| NS(=O)(=O)c1cc2c(cc1C(F)(F)F)NC(Cc1ccccc1)NS2(=O)=O (stereo unspecified) | 0.991 |
| CC(=O)O[C@@H]1CC2C(C)(CC[C@H](O)C2(C)C)C2CC[C@]3(C)C(=CC(=O)O[C@H]3c3ccoc3)C21C (stereo partly specified) | 0.986 |
